System: 186277-243-T-J2-PDC multi-cell spheroid viability
test_name: Anticancer human tumor 186277-243-T-J2-PDC patient-derived colon adenocarcinoma cell line growth inhibition [PI3K]
conditions_used: second compound 0.0316 µM; first compound 1 µM; hits give low values
Documented viability, T/C across a set of compounds

Consider the reported viability, T/C for these compounds:
>>> observed_value("C[C@@H](NC(=O)c1ncnc(N)c1Cl)c1ncc(C(=O)Nc2cc(C(F)(F)F)c(Cl)cn2)s1 + COc1c(OCCCN2CCOCC2)ccc2c3n(c(=NC(=O)c4cnc(N)nc4)nc12)CCN3")
"68.5%"
>>> observed_value("CNC(=O)c1ccc(N2C(=S)N(c3ccc(C#N)c(C(F)(F)F)c3)C(=O)C2(C)C)cc1F + COc1c(OCCCN2CCOCC2)ccc2c3n(c(=NC(=O)c4cnc(N)nc4)nc12)CCN3")
"81.7%"
>>> observed_value("CNC(=O)c1ccc(N2C(=S)N(c3ccc(C#N)c(C(F)(F)F)c3)C(=O)C2(C)C)cc1F + CC(Nc1ncnc2nc[nH]c12)c1cc2cccc(Cl)c2c(=O)n1-c1ccccc1")
"90.1%"

viability, T/C in this record for CNC(=O)c1ccc(N2C(=S)N(c3ccc(C#N)c(C(F)(F)F)c3)C(=O)C2(C)C)cc1F + CC(Nc1ccc2c(c1)OCCn1cc(N3C(=O)OCC3C(F)F)nc1-2)C(N)=O : 113%

viability, T/C measured on Cn1nccc1Nc1nccc(-c2ccn(C(CO)c3ccc(Cl)c(F)c3)c(=O)c2)n1 (stereo not given) + CC(Nc1ncnc2nc[nH]c12)c1cc2cccc(Cl)c2c(=O)n1-c1ccccc1 = 83.7%

The value of viability, T/C measured for the compound CC1(C)CCC(Nc2ncc(C(F)(F)F)c(-c3c[nH]c4c(P(C)(C)=O)c(C#N)ccc34)n2)CN1 (stereo not given) + CC(Nc1ncnc2nc[nH]c12)c1cc2cccc(Cl)c2c(=O)n1-c1ccccc1 turned out to be 59.9%

Briefly, viability, T/C measured for C[C@@H](NC(=O)c1ncnc(N)c1Cl)c1ncc(C(=O)Nc2cc(C(F)(F)F)c(Cl)cn2)s1 + Cc1nc(NC(=O)N2CCCC2C(N)=O)sc1-c1ccnc(C(C)(C)C(F)(F)F)c1 : 99.5%

Item: C=CC(=O)N1CCN(c2nc(=O)n(-c3c(C)ccnc3C(C)C)c3nc(-c4c(O)cccc4F)c(F)cc23)C(C)C1 (stereo not given) + COc1c(OCCCN2CCOCC2)ccc2c3n(c(=NC(=O)c4cnc(N)nc4)nc12)CCN3 | viability, T/C: 52.6%

Input C#Cc1c(F)ccc2cc(O)cc(-c3ncc4c(N5CC6CCC(C5)N6)nc(OCC56CCCN5CC(F)C6)nc4c3F)c12 (stereo not given) + COc1c(OCCCN2CCOCC2)ccc2c3n(c(=NC(=O)c4cnc(N)nc4)nc12)CCN3 . Output viability, T/C: 3.62%

Recorded result, CC1(C)CCC(CN2CCN(c3ccc(C(=O)NS(=O)(=O)c4ccc(NCC5CCOCC5)c([N+](=O)[O-])c4)c(Oc4cnc5[nH]ccc5c4)c3)CC2)=C(c2ccc(Cl)cc2)C1 + COc1c(OCCCN2CCOCC2)ccc2c3n(c(=NC(=O)c4cnc(N)nc4)nc12)CCN3 , viability, T/C: 78.5%

---

Tested on: 186277-243-T-J2-PDC multi-cell spheroid viability
test_name: Anticancer human tumor 186277-243-T-J2-PDC cell line growth inhibition [PI3K];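 note: spheroids exposed to compounds for seven days before viability reading; 100% = DMSO vehicle control viability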
conditions_used: second compound 0.00316 µM; first compound 0.01 µM; hits give low values
recorded_metric: viability, T/C (%)
Kindly answer with a numeric value in %, unit omitted.

>>> observed_value("CC(C)n1nc(-c2ccc3oc(N)nc3c2)c2c(N)ncnc21 + COc1c(OCCCN2CCOCC2)ccc2c3n(c(=NC(=O)c4cnc(N)nc4)nc12)CCN3")
82.9
>>> observed_value("Cn1ncnc1[C@H]1c2n[nH]c(=O)c3cc(F)cc(c23)N[C@@H]1c1ccc(F)cc1 + COc1c(OCCCN2CCOCC2)ccc2c3n(c(=NC(=O)c4cnc(N)nc4)nc12)CCN3")
80.9

# compound CCN1CCN(Cc2ccc(Nc3ncc(F)c(-c4cc(F)c5nc(C)n(C(C)C)c5c4)n3)nc2)CC1 + CC(Nc1ccc2c(c1)OCCn1cc(N3C(=O)OCC3C(F)F)nc1-2)C(N)=O ; its viability, T/C = 94.3

Lab note: measured viability, T/C of CC(C)n1nc(-c2ccc3oc(N)nc3c2)c2c(N)ncnc21 + CC(Nc1ccc2c(c1)OCCn1cc(N3C(=O)OCC3C(F)F)nc1-2)C(N)=O was 93.7

For CC(=O)c1c(C)c2cnc(Nc3ccc(N4CCNCC4)cn3)nc2n(C2CCCC2)c1=O + COc1c(OCCCN2CCOCC2)ccc2c3n(c(=NC(=O)c4cnc(N)nc4)nc12)CCN3 the compound record lists viability, T/C as 94.9
